- Tested on: Escherichia coli TOP10
- protocol-text: shrunken log2 fold change of peptide-encoding DNA abundance (4.5 h post-induction vs induction); higher = less antimicrobial activity (less host growth inhibition)
- experimental-context: time post-induction: 4.5 h; library: site-saturation at positions 5, 18, 19, 20
Hi, to clarify the labels: y covers shrunken log2 fold change from -0.05 upward, n covers anything below -0.05.

| biosequence | subject-of-test | label |
| --- | --- | --- |
| RRIRCRPPRLPRPRPRPRYQPRP | Escherichia coli TOP10 | n |
| RRIRDRPPRLPRPRPRPRFKPRP | Escherichia coli TOP10 | y |
| RRIRRRPPRLPRPRPRPHASPRP | Escherichia coli TOP10 | y |
| RRIRCRPPRLPRPRPRPACDPRP | Escherichia coli TOP10 | y |
| RRIRIRPPRLPRPRPRPHWWPRP | Escherichia coli TOP10 | y |
| RRIRSRPPRLPRPRPRPSNVPRP | Escherichia coli TOP10 | n |
| RRIRCRPPRLPRPRPRPRDSPRP | Escherichia coli TOP10 | y |
| RRIRFRPPRLPRPRPRPSDQPRP | Escherichia coli TOP10 | n |

----------
- Tested on: Escherichia coli TOP10;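 also: peptides expressed intracellularly from a pBAD plasmid library in pooled LB shake-flask culture, induced with 0.3% L-arabinose, DNA abundance read by NGS, three biological replicates, DESeq2 with apeglm shrinkage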
- protocol-text: shrunken log2 fold change of peptide-encoding DNA abundance (4.5 h post-induction vs induction); higher = less antimicrobial activity (less host growth inhibition)
- experimental-context: time post-induction: 4.5 h; library: site-saturation at positions 5, 18, 19, 20
Please use fulfilled whenever shrunken log2 fold change is not below 0.07, and not fulfilled whenever it is.

| biosequence | label |
| --- | --- |
| RRIRCRPPRLPRPRPRPKSYPRP | not fulfilled |
| RRIRNRPPRLPRPRPRPLMGPRP | not fulfilled |
| RRIRIRPPRLPRPRPRPSDKPRP | not fulfilled |
| RRIRVRPPRLPRPRPRPCMIPRP | not fulfilled |
| RRIRARPPRLPRPRPRPTDYPRP | not fulfilled |
| RRIRWRPPRLPRPRPRPLLGPRP | fulfilled |
| RRIRPRPPRLPRPRPRPWRNPRP | fulfilled |
| RRIRRRPPRLPRPRPRPNITPRP | not fulfilled |
| RRIRHRPPRLPRPRPRPNHVPRP | not fulfilled |
| RRIRCRPPRLPRPRPRPFNAPRP | not fulfilled |
| RRIRVRPPRLPRPRPRPLDWPRP | fulfilled |
| RRIRSRPPRLPRPRPRPHQLPRP | not fulfilled |
| RRIRKRPPRLPRPRPRPQYHPRP | not fulfilled |
| RRIRIRPPRLPRPRPRPFNKPRP | not fulfilled |
| RRIRKRPPRLPRPRPRPDICPRP | fulfilled |
| RRIRARPPRLPRPRPRPCWYPRP | not fulfilled |
| RRIRYRPPRLPRPRPRPYMSPRP | not fulfilled |
| RRIRRRPPRLPRPRPRPNKTPRP | not fulfilled |
| RRIRARPPRLPRPRPRPFQGPRP | not fulfilled |
| RRIRTRPPRLPRPRPRPLVGPRP | fulfilled |
| RRIRNRPPRLPRPRPRPFPNPRP | not fulfilled |
| RRIRKRPPRLPRPRPRPTQAPRP | not fulfilled |
| RRIRPRPPRLPRPRPRPVWDPRP | fulfilled |
| RRIRGRPPRLPRPRPRPLAPPRP | fulfilled |
| RRIRGRPPRLPRPRPRPRSEPRP | fulfilled |
| RRIRKRPPRLPRPRPRPFSSPRP | not fulfilled |
| RRIRSRPPRLPRPRPRPDDAPRP | fulfilled |
| RRIRGRPPRLPRPRPRPHNDPRP | not fulfilled |
| RRIRGRPPRLPRPRPRPWTAPRP | fulfilled |
| RRIRHRPPRLPRPRPRPPWFPRP | not fulfilled |
| RRIRWRPPRLPRPRPRPPGLPRP | fulfilled |
| RRIRSRPPRLPRPRPRPRGIPRP | not fulfilled |
| RRIRCRPPRLPRPRPRPGRIPRP | not fulfilled |
| RRIRNRPPRLPRPRPRPLWIPRP | not fulfilled |
| RRIRPRPPRLPRPRPRPSSIPRP | not fulfilled |
| RRIRDRPPRLPRPRPRPYNPPRP | not fulfilled |
| RRIRDRPPRLPRPRPRPYGKPRP | not fulfilled |
| RRIRQRPPRLPRPRPRPSHRPRP | not fulfilled |
| RRIRTRPPRLPRPRPRPYWNPRP | not fulfilled |
| RRIRPRPPRLPRPRPRPSNRPRP | not fulfilled |
| RRIRKRPPRLPRPRPRPNQFPRP | fulfilled |
| RRIRVRPPRLPRPRPRPARKPRP | fulfilled |
| RRIRNRPPRLPRPRPRPHADPRP | not fulfilled |
| RRIRERPPRLPRPRPRPRPLPRP | fulfilled |
| RRIRARPPRLPRPRPRPLTAPRP | fulfilled |
| RRIRMRPPRLPRPRPRPNAKPRP | fulfilled |
| RRIRTRPPRLPRPRPRPVKWPRP | not fulfilled |
| RRIRCRPPRLPRPRPRPASCPRP | fulfilled |
| RRIRARPPRLPRPRPRPMGYPRP | not fulfilled |
| RRIRSRPPRLPRPRPRPTGQPRP | fulfilled |
| RRIRYRPPRLPRPRPRPGVRPRP | not fulfilled |
| RRIRGRPPRLPRPRPRPWSQPRP | fulfilled |
| RRIRNRPPRLPRPRPRPGDKPRP | not fulfilled |
| RRIRWRPPRLPRPRPRPMSNPRP | not fulfilled |
| RRIRYRPPRLPRPRPRPGSLPRP | not fulfilled |
| RRIRLRPPRLPRPRPRPSSFPRP | not fulfilled |
| RRIRQRPPRLPRPRPRPHRGPRP | not fulfilled |
| RRIRERPPRLPRPRPRPMGNPRP | not fulfilled |
| RRIRKRPPRLPRPRPRPNYNPRP | fulfilled |
| RRIRARPPRLPRPRPRPMAHPRP | fulfilled |
| RRIRRRPPRLPRPRPRPKPRPRP | fulfilled |
| RRIRKRPPRLPRPRPRPGFHPRP | fulfilled |
